Data origin: patent EP4772503A1

# measurement notes: DLS detection of grain size, PDI and zeta potential of vesicles
# Assay type: physicochemical
# test context: vesicles of the derivative, depolymerization and assembly repeated three times
Each entry below carries its reported d(nm).
Give the number; nm is assumed, so skip it.

Below, each entry is followed by its recorded d(nm) result.
[[record]]
compound = "O=C(CCCCC1CCSS1)NCCOCCOCCOCCOCCOCCOCCOCCOCCC(=O)NC(Cc1ccc(B(O)O)cc1)C(=O)O (stereo not shown) [L^pB-4]"
meas_value = 268.4

[[record]]
compound = "O=C(CCCCC1CCSS1)NCCOCCOCCC(=O)NC(Cc1cccc(B(O)O)c1)C(=O)O (stereo not shown) [L^mB-2]"
meas_value = 149.1

[[record]]
compound = "O=C(CCCCC1CCSS1)NCCOCCOCCOCCOCCC(=O)NC(Cc1cccc(B(O)O)c1)C(=O)O (stereo not shown) [L^mB-3]"
meas_value = 165.7


INPUT: Read off the recorded d(nm) for O=C(CCCCC1CCSS1)NCCOCCOCCOCCOCCOCCOCCOCCOCCC(=O)NC(Cc1cccc(B(O)O)c1)C(=O)O (stereo not shown) [L^mB-4]
OUTPUT: 284.6
